# test-target: Cytochrome P450 3A4 (Homo sapiens) (UniProt P08684)
# Sequence (P08684 whole entry, looked up): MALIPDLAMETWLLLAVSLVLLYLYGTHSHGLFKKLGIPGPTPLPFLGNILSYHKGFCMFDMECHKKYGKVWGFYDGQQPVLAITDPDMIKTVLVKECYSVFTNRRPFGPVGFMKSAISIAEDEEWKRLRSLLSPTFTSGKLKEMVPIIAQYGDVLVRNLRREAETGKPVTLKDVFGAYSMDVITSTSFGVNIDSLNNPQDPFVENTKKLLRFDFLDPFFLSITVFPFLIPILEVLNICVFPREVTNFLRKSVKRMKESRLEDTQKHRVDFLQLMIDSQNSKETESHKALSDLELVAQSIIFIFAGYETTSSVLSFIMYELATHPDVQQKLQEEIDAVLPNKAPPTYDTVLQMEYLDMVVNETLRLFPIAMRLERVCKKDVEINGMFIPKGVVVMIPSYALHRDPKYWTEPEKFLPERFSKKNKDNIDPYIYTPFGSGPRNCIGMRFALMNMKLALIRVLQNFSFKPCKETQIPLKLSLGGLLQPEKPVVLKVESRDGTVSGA
# experimental-protocol: Cytochrome P450 Family 3 Subfamily A Member 4 (CYP3A4) small molecule antagonists: luciferase reporter qHTS assay (AID 1671201); also: nearly all actives have a fitted effect of over 50% in size
# condition-notes: P450-Glo CYP3A4 enzyme, luciferin luminescence, 1 h; series mostly up to 115 µM
Inconclusive results are not listed. Active and inactive are the calls of the source. Calls follow the shape of the dose curve; as a rule, active = well fitted inhibition curve with a large enough effect in the repeat runs; inconclusive = weak or mixed curves; inactive = no such curve, though single readings can be large or run the other way.
Classes to choose from: t for active, f for inactive

Please review the entries below; each comes with its answer.
CCCCCCCCSCCO    f
CC(C)C(OC(=O)c1ccccc1)C(C)(C)COC(=O)c1ccccc1 (centres undefined)    f
Cc1nccn1-c1ccc(Sc2cccc(C3(C(N)=O)CCOCC3)c2)cc1    t
CCCCC/C(=C\c1ccccc1)CO    f
CCCCN(CCCC)C(=S)SSC(=S)N(CCCC)CCCC    t

What did the test return for CCCc1c(OCCCOc2ccc(OCC(=O)O)cc2)ccc(C(C)=O)c1O ?
f

What did the test return for Cc1nc2ccccc2s1 ?
f

What did the test return for CC(C)CCCC(=O)O ?
f

What did the test return for CC(CCO)CCc1ccccc1 (centres undefined) ?
f

What did the test return for Nc1ccc(C(=O)OCCCOC(=O)c2ccc(N)cc2)cc1 ?
t

====

# experimental-protocol: qHTS assay to identify small molecule agonists of the hypoxia (HIF-1) signaling pathway - cell viability counter screen (AID 1224844); also: nearly all actives have a fitted effect of over 50% in size
# condition-notes: HRE-bla ME-180 viability, CellTiter-Glo luminescence, 17 h; series mostly up to 76.8 µM
Inconclusive results are not listed. Calls of active or inactive are those of the source. Calls come from the whole dose curve.
Classes to choose from: Y = active, N = inactive

C[N+]1(C)CCC(=C(c2ccccc2)c2ccccc2)CC1    N

Okay, next one:
What did the test return for COc1ccc([C@@H]2Sc3ccccc3NC(=O)[C@@H]2O)cc1 ?
N

====

# test-target: Androgen receptor (Homo sapiens) (UniProt P10275)
# Sequence (P10275 whole entry, looked up): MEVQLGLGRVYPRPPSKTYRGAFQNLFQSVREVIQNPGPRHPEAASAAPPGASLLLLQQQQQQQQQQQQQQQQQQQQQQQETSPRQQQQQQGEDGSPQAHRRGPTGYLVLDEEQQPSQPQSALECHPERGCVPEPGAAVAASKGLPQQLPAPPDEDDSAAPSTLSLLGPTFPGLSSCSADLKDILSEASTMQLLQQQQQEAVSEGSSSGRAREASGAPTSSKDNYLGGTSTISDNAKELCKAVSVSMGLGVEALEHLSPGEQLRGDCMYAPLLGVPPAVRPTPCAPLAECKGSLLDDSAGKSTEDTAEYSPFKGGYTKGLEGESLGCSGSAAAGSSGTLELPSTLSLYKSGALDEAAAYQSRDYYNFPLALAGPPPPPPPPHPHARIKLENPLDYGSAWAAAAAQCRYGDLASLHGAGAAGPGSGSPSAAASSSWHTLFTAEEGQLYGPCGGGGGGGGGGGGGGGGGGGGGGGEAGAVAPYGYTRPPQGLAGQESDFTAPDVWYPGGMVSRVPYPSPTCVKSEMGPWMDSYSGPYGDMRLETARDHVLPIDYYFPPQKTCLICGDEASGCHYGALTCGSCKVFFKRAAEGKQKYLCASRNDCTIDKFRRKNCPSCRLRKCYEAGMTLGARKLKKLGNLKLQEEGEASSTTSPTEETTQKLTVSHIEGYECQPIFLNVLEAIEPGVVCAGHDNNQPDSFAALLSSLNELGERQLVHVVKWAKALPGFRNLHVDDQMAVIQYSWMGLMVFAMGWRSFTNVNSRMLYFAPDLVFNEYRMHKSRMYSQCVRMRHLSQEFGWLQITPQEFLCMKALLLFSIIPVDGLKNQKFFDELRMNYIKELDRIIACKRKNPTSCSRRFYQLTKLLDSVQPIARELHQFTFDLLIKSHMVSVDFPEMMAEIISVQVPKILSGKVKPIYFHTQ
# experimental-protocol: qHTS assay to identify small molecule agonists of the androgen receptor (AR) signaling pathway using the MDA cell line (AID 743040; also: nearly all actives have a fitted effect of over 20% in size)
# condition-notes: MDA-kb2 AR-luc cells, MMTV luciferase, 16 h; series mostly up to 70.3 µM
# Source text: National Center for Advancing Translational Sciences [NCATS] NIH Chemical Genomics Center [NCGC] U.S. Environmental Protection Agency [EPA] National Institutes of Environmental Health Sciences [NIEHS] National Toxicology Program [NTP] U.S. Food and Drug Administration [FDA] Androgen receptor (AR), a nuclear hormone receptor, plays a critical role in AR-dependent prostate cancer and other androgen related diseases. […]
The source made the active and inactive calls. Calls follow the shape of the dose curve; as a rule, active = well fitted activation curve with a large enough effect in the repeat runs; inconclusive = weak or mixed curves; inactive = flat fitted curve, though single readings scatter.
Classes to choose from: active, inactive

Please review the entries below; each comes with its answer.
O=[N+]([O-])c1cccc(S(=O)(=O)NCCNS(=O)(=O)c2cccc([N+](=O)[O-])c2)c1    inactive
OC(CCCN1CCCCC1)(c1ccccc1)c1ccccc1    inactive
CCCOC(=O)c1ccc(C(=O)OCCC)nc1    inactive
OCC1CC=CCC1 (stereo not given)    inactive
CCOC(=O)[C@@H](C)Oc1ccc(Oc2nc3ccc(Cl)cc3o2)cc1    inactive
CC(C)=CC=O    inactive
CN(C(=O)C(Cl)Cl)c1ccc(OC(=O)c2ccco2)cc1    inactive
CCCC(=O)O[C@]1(C(=O)COC(=O)CC)CC[C@H]2[C@@H]3CCC4=CC(=O)CC[C@]4(C)[C@H]3[C@@H](O)C[C@@]21C    active
CC(=O)OCC(=O)[C@H]1CC[C@H]2[C@@H]3CCC4=CC(=O)CC[C@]4(C)[C@H]3CC[C@]12C    active
CCc1cccc(N(C)C(N)=Nc2cccc3ccccc23)c1    inactive

Okay, next one:
What did the test return for CO[C@H]1C=CO[C@@]2(C)Oc3c(C)c(O)c4c(O)c(c5c(c4c3C2=O)=NC2(CCN(CC(C)C)CC2)N=5)NC(=O)/C(C)=C\C=C/[C@H](C)[C@H](O)[C@@H](C)[C@@H](O)[C@@H](C)[C@H](OC(C)=O)[C@@H]1C ?
inactive

====

# experimental-protocol: qHTS assay to identify small molecule antagonists of the thyroid receptor (TR) signaling pathway (AID 743065); also: nearly all actives have a fitted effect of over 55% in size
# condition-notes: GH3.TRE-Luc, T3-stimulated luciferase inhibition, 23.5 h; series mostly up to 70.3 µM
Records with an inconclusive call do not appear. Activity calls are given as the source filed them. The call rests on the fitted dose curve; in most records, active means well fitted inhibition curve with a large enough effect in the repeat runs; inconclusive means weak or mixed curves; inactive means no such curve, though single readings can be large or run the other way.
Classes to choose from: active, inactive

Please review the entries below; each comes with its answer.
COCC(O)CO (centres undefined)    inactive
c1cc[c]([Bi]([c]2ccccc2)[c]2ccccc2)cc1    active
CCCOC(=O)c1ccc(N)cc1    inactive
CCOC(=O)C(C)Oc1ccc(Oc2nc3ccc(Cl)cc3o2)cc1 (centres undefined)    inactive

What did the test return for Cc1nc2ccccc2s1 ?
inactive

What did the test return for CCCCCCOC(=O)CCCCCCCC(=O)OCCCCCC ?
inactive

What did the test return for Nc1ccc(S(=O)(=O)O)cc1 ?
inactive

What did the test return for NCC1CCCC(CN)C1 (centres undefined) ?
inactive

What did the test return for O=C(NCCCN1CCOCC1)c1ccc(Cl)cc1 ?
inactive

What did the test return for CCCCCCCC/C=C\CCCCCCCC(=O)OC(CO)CO ?
inactive

What did the test return for Cc1ccnc2ccccc12 ?
inactive

====

# experimental-protocol: qHTS assay to identify small molecule antagonists of the estrogen receptor alpha (ER-alpha) signaling pathway - cell viability counter screen (AID 743074);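 also: HEK293 cells carrying ER-alpha-UAS-bla reporter stimulated with 17beta-estradiol; nearly all actives have a fitted effect of over 45% in size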
# condition-notes: ERalpha-bla HEK293 viability, CellTiter-Glo luminescence, 18 h; series mostly up to 69.4 µM
Records with an inconclusive call do not appear. Active and inactive are the calls of the source. Calls come from the whole dose curve.
Classes to choose from: 1 = active, -1 = inactive

CC1(C)C2=CCCC(C)(C)[C@]23CC[C@H]1C3    -1
O=C(O)Cc1ccc(-c2ccccc2)cc1    -1
CCCOC(=O)c1ccc(C(=O)OCCC)nc1    -1

What did the test return for COc1ccc(CCC(=O)c2c(O)cc(O[C@@H]3O[C@H](CO)[C@@H](O)[C@H](O)[C@H]3O[C@@H]3O[C@@H](C)[C@H](O)[C@@H](O)[C@H]3O)cc2O)cc1O ?
-1

What did the test return for C[C@]12CCC(=O)C=C1C=C[C@@H]1[C@@H]2CC[C@@]2(C)[C@H]1CC[C@@]21CCC(=O)O1 ?
-1

What did the test return for CC1C2CC(CC2C2CCCC(O)C2)C1(C)C (stereo unspecified) ?
-1

What did the test return for Cc1nccn1-c1ccc(Sc2cccc(C3(C(N)=O)CCOCC3)c2)cc1 ?
-1

What did the test return for CO[C@H]1O[C@H](CO)[C@@H](O)[C@H](O)[C@H]1O ?
-1

What did the test return for CC(C)(C)C(=O)O ?
-1

What did the test return for C[N+]1(C)CCC(=C(c2ccccc2)c2ccccc2)CC1 ?
-1

What did the test return for CC(=O)OCC(=O)[C@@]12OC(C)(C)O[C@@H]1C[C@H]1[C@@H]3C[C@H](F)C4=CC(=O)C=C[C@]4(C)[C@@]3(F)[C@@H](O)C[C@@]12C ?
-1

What did the test return for O=C(O)c1cccnc1C(=O)O ?
-1

What did the test return for CCC(C(=O)OCCOCCN(CC)CC)c1ccccc1 (stereo unspecified) ?
-1

====

# experimental-protocol: qHTS RealTime-Glo MT Cell Viability Assay in HepG2 cells - 32 hour (AID 1224877); also: nearly all actives have a fitted effect of over 55% in size
# condition-notes: RealTime-Glo luminescence; series mostly up to 76.8 µM
Results filed as inconclusive are left out. The source made the active and inactive calls. The call rests on the fitted dose curve; in most records, active means well fitted cell-killing curve with a large enough effect in the repeat runs; inconclusive means weak or mixed curves; inactive means flat fitted curve, though single readings scatter.
Classes to choose from: active, inactive

O=C(CCCN1CCN(c2ccc(F)cc2)CC1)NC1c2ccccc2CSc2ccccc21 (stereo unspecified)    active
CCOCCn1c(C2CCN(CCc3ccc(C(C)(C)C(=O)O)cc3)CC2)nc2ccccc21    inactive
COc1cc2ncnc(Nc3ccc(F)c(Cl)c3)c2cc1OCCCN1CCOCC1    active
O=[N+]([O-])c1cccc(S(=O)(=O)NCCNS(=O)(=O)c2cccc([N+](=O)[O-])c2)c1    inactive
O=C(O)C(Cc1cc(I)c(O)c(I)c1)c1ccccc1 (stereo unspecified)    inactive
CC1(C)C(=O)N(Br)C(=O)N1Cl    inactive

What did the test return for CC(C)(C)CC(C)(C)c1ccc(OCCO)cc1 ?
inactive

====

# experimental-protocol: qHTS assay to identify small molecule agonists of the estrogen related receptor signaling pathway with the pleiotropic PPARgamma coactivator (PGC) from Tox21 10K library (AID 1224842); also: nearly all actives have a fitted effect of over 15% in size
# condition-notes: PGC/ERR reporter cell line, luciferase ONE-Glo, 18 h; series mostly up to 92.4 µM
Results filed as inconclusive are left out. Active and inactive are the calls of the source. Calls follow the shape of the dose curve; as a rule, active = well fitted activation curve with a large enough effect in the repeat runs; inconclusive = weak or mixed curves, or effect the other way; inactive = no such curve, though single readings can be large or run the other way.
Classes to choose from: TRUE (active), FALSE (inactive)

What did the test return for CC1CC(=O)NN=C1c1ccc(NCC(C)(C)NCC(O)COc2cc(Cl)ccc2C#N)cc1 (stereo not given) ?
FALSE

What did the test return for CN1CCN(CCCN2c3ccccc3Sc3ccc(S(=O)(=O)N(C)C)cc32)CC1 ?
FALSE

What did the test return for O=C1NCCN1 ?
FALSE

What did the test return for CN(C)C(=O)Nc1ccc(Oc2ccc(Cl)cc2)cc1 ?
FALSE

What did the test return for c1ccc(COCc2ccccc2)cc1 ?
FALSE
